Measurement Conditions: pH 6.8
Classification field: MET = aqueous solubility at or over 0.06 mg/mL; NOT MET = aqueous solubility under 0.06 mg/mL.

{"Molecule": "Cc1cnn(Cc2cc(F)ccc2F)c1N", "Class": "NOT MET"}
{"Molecule": "Cc1nccc(-c2cccc(NCC(=O)N3CCCCCCC3)c2)n1", "Class": "NOT MET"}
{"Molecule": "CCC(=O)N1CCCc2cc(C(O)CN3CCN(c4ccc(OC)cc4)CC3)ccc21 (stereo unspecified)", "Class": "MET"}
{"Molecule": "CC(C)c1ccc(-c2cc3c(=O)n(CCC(=O)NCCN(C)C)ccn3n2)cc1", "Class": "NOT MET"}
{"Molecule": "COc1ccc(CCn2c(C3CC3)n[nH]c2=O)cc1", "Class": "NOT MET"}
{"Molecule": "Cc1[nH]ncc1-c1nn2c(Cc3ccccc3Cl)nnc2s1", "Class": "NOT MET"}

// provenance: the Biogen ADME set (Fang et al. 2023)
